Assay Text: water solubility
Type: physicochemical
Condition Summary: water; read-out: solubility of the sodium salt
Recorded Metric: solubility

{"Compound": "CNC(=O)c1c(I)c(NC(=O)[C@H](O)[C@@H](O)[C@H](O)[C@H](O)CO)c(I)c(C(=O)O)c1I [Example 2]", "Test Value": "> 1010 mg/mL"}
